The following binders are shown together with reported koff values.
Molecular target: Human CD33 ECD-HSA (human)
Sequence (chain, as listed by the source): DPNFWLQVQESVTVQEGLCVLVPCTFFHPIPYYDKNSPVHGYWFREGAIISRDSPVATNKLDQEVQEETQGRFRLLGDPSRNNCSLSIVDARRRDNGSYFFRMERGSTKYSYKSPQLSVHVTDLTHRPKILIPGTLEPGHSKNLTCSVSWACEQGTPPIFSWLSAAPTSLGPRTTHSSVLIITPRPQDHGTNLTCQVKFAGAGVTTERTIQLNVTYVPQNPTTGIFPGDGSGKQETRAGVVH
Assay: ProteOn SPR, mAb captured by anti-human Fc, 1:1 Langmuir fit

Binder: C33B52 (antibody, IgG1, V domains shown, huIgG1 F405L; also called C33F57; C33H42/C33L8) VH: QLQLQESGPGLVNPSETLSHTCTVSGGSISSSSHYWGWIRQPPGKGLEWIGKIYYSGNTYYNPSLKSRVTISIDTSKNQFSLKMSSVTAADTAVYYCARLADVVVVPAARYFDSWGQGTLVTVSS VL: SYELTQPPSVSVSPGQTASIICSGDKLGNKYACWYQQKPGQSPVLVIYQDSKRPSGIPERFSGSNSGNTATLTISGTQAVDEADYYCQAWDSSTYVFGTGTKVTVL
Unit Text: s⁻¹
koff: 0.00396

Binder: C33B96 (antibody, IgG1, V domains shown, huIgG1 F405L; also called C33F101; C33H99/C33L37) VH: EVQLVESGGGLVQPGGSLRLSCAASGFTFSSYWMTWVRPAPGKGLEWVANIKRDGGEKYYVDSVKGRFTISRDNAANSLYLQMNSLRVEDTAVYYCARPFYDHFDYWGQGTLVTVSS VL: SYVLTQPPSVAVAPGQTARITCGGSNIGKISVHWYQQKAGQAPVLVVHDDRARPSGIPERLSGSNSGTTATLTISRVEVGDEADYYCQVWNSSSVHPVFGGGTKLTVL
Unit Text: s⁻¹
koff: 0.000436

Binder: C33B80 (antibody, IgG1, V domains shown, huIgG1 F405L; also called C33F85; C33H76/C33L39) VH: EVQLLESGGGLVQPGGSLRLSCAASGFTFNYAMSWVRQAPGKGLEWVSAISGSGGSTYYADSVKGRFTISRDISKNTLYLQMNSLRAEDTAVYYCARTYNSGYYDGDFDYWGQGTLVTVSS VL: QSALTQPASVSGSPGQSIPISSTGTSSDDGKNNIVSWYQQHPGKAPKLMIYKDSKRPSGVSNRFSGSKSGNTASLTISGLQADDEADYHCCSYAGASNHVVFGGGTKLTVL
Unit Text: s⁻¹
koff: 0.000425

Binder: C33B48 (antibody, IgG1, V domains shown, huIgG1 F405L; also called C33F53; C33H80/C33L73) VH: QVQLVQSGSELRKPGASVKVSCKASGYTFTNYAMNWVRQAPGQGLEWMGWINTNTGNPTYAQGFTGRFVFSLDTSVSSAYLQISSLKAEDTAMYYCATDRDRGTDYWGQGTLVTVSS VL: QSALTQPASVSGSPGQSITISCTGTSSDVGDYNYVSWYQQHPGKVPKLMIYDVSNRPSGVSNRFSGSMSGNTASLTISGLQAEDEADYYCSSYSSSSALEVFGGGTKLTVL
Unit Text: s⁻¹
koff: 1.82e-05

Binder: C33B73 (antibody, IgG1, V domains shown, huIgG1 F405L; also called C33F78; C33H66/C33L60) VH: QVQLVESGGGVVQPGRSLRLSCVASGFTFSSYGMHWVRQAPGKGLEWVAVISYDGSNKYYADSVKGRFTISRDNSKNTLYLQMNSLRAEGTAVYYCAKDFRSFDWLPPDSASYHGMDVWGQGTTVTVSS VL: SYELTQPPSVSVSPGQTASITCSGDKLGDKYACWYQQKPGQSPVLVIYQDGKRPSGIPERFSGSNFGNKATLTISGTQAMDEADYYCQAWDRNTVVFGGGTKLTVL
Unit Text: s⁻¹
koff: 5.59e-05

Binder: C33B55 (antibody, IgG1, V domains shown, huIgG1 F405L; also called C33F60; C33H45/C33L11) VH: QVQLVESGGGVVQPGRSLRLSCAASGFTFSSYGMHWVRQSPGKGLEWVAVISYDGSNKYCADSVKGRFTISRDNSKSTLYLQMNSLRAEDTAVYYCAKDFRSLDWLPPDSTSYDGMDVWGQGTTVTVSS VL: SYELTQPPSVSVSPGQTASITCSGHKLGDKYACWYQQKPGQSPVVVIYKDSKRPSGIPERFSGSNFGNTATLTISGTQAMDEADYYCQAWDSSTVVFGGGTKLTVL
Unit Text: s⁻¹
koff: 0.000253

Binder: C33B79 (antibody, IgG1, V domains shown, huIgG1 F405L; also called C33F84; C33H74/C33L38) VH: QVQLVESGGGVVQPGRSLRLSCAASRFTFSSYGMHWVRQAPGKGLEWVAVISYDGSNKYYADSVKGRFTISRDNSKNTLYLQMNSLRAEDTAVHYCAKDFRSFDWLPPDSASYHGMDVWGQGTTVTVSS VL: SYELTQPPSVSVPPGQTASITCSGDKLGDKYACWYQQKPGQSPVLVIYQDNKRPSGIPERFSGSNSGNTATLTISGTQAMDEADYYCQAWGRNTVVFGGGTKLTVL
Unit Text: s⁻¹
koff: 0.00039

Binder: C33B46 (antibody, IgG1, V domains shown, huIgG1 F405L; also called C33F51; C33H108/C33L74) VH: QVQLVQSGSELKKPGASVKVSCKASGYTFSTYAMNWVRQAPGQGLEWMGWINTNTGNPTYAQGFTGRFVFSLDTSVSTAYLQISSLKAEDTAVYYCARDRDRGTDYWGQGTLVTVSS VL: QSALTQPASVSGSPGQSITISCTGTSSDVGDDNYVSWYQQHPGKAPKLMIYDVSNRPSGVSNRFSGSKSGNTASLTISGLQSEDEADYYCSSYSSSTTLEVFGGGTKLTVL
Unit Text: s⁻¹
koff: 0.00199

Binder: C33B66 (antibody, IgG1, V domains shown, huIgG1 F405L; also called C33F71; C33H55/C33L42) VH: QVQLQESGPGLVKPSGTLSLTCAVSGGSISSSNWWSWVRQPPGRGLEWIGEIYHSGNTNNSPSLKSRVTISADKSKNQFSLKLSSVTAADTAVYFCARIIAVARYFDSWGQGTLVTVSS VL: SYVLTQPPSVSVAPGQTARITCGGNNIGIKSVHWYQQKPGQAPVLVVYDDSDRPPGIPERFSGSNSGNTATLTITRVEAGDEADYYCQVWDSSSDHVVFGGGTKLTVL
Unit Text: s⁻¹
koff: 0.00203

Binder: C33B63 (antibody, IgG1, V domains shown, huIgG1 F405L; also called C33F68; C33H51/C33L34) VH: QLQLQESGPGLVKPSETLSLTCTVSGGSISTGRYYWGWIRQPPGKGVIWIGNIYYSGNTYYNPSLKSRVTISVDTSKNQFSLKLNSVTAADTAVYYCARLGSLVVVPAAMSFDYWGQGTLVTVSS VL: SYELTQPPSVSVSPGQTASITCSGDKLGDKYACWYQLRPGQSPILVIYQDSNRPSGIPERFSGSNSGNTATLTISGTQAMDEADYYCQAWDSSTWVFGGGTKLTVL
Unit Text: s⁻¹
koff: 0.00374

Binder: C33B124 (antibody, IgG1, V domains shown, huIgG1 F405L; also called C33F129; C33H73/C33L32) VH: EVQLLESGGGLVQPGGSLRLSCAASRFTFSSYAMTWVRQAPGKGLEWVSTINISGGSTYYADSVKGRFTISRDNSKNTLYLQMNSLRAEDTAVYYCTKGGYSSGPFDYWGQGTLVSVSS VL: SYELTQPPSVSVSPGQTASITCSGDKLGDKYVRWYQQKTGQSPVLVMYQDSKRPSGIRERFYGSNSGNTATPTISGTQAVDEAEYYCQAWDSSTGVVFGGGTKLTVL
Unit Text: s⁻¹
koff: 0.000124
